MEASUREMENT TARGET: human recombinant ETB receptors (Homo sapiens, UniProt P24530)
Construct: expressed in transfected cells; host or cells: CHO cells (microsomal membranes)
Sequence (P24530 27-442): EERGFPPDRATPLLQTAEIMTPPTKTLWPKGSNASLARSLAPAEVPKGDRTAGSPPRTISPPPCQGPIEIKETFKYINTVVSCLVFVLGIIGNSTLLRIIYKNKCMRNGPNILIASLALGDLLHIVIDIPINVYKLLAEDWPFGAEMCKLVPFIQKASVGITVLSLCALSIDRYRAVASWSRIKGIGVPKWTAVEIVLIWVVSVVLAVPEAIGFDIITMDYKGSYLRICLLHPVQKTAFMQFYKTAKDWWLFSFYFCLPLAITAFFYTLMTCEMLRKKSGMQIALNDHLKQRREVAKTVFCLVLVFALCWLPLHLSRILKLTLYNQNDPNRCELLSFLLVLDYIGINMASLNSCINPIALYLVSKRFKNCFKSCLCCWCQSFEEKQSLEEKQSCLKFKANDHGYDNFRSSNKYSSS
PROCEDURE TEXT: Inhibition of endothelin binding to membranes from CHO cells carrying human ET receptors (ETB)
CONDITION SUMMARY: read-out: IC50 ETB
EXPERIMENTAL ENDPOINT: IC50 (nM)
Kindly provide the numeric value in nM only, without the unit symbol.

The molecule identified as Cc1cc(C)nc(O[C@H](C(=O)O)[C@@]2(c3ccccc3)NCC(=O)N(C)c3ccc(Cl)cc32)n1 (racemic) [Example 170] registered its IC50 at 368

The molecule identified as COc1cc(CN2C(=O)CN[C@](c3ccccc3)([C@H](Oc3nc(OC)cc(OC)n3)C(=O)O)c3cc(Cl)ccc32)cc(OC)c1 (racemic) [Example 167] registered its IC50 at 947
